Answer each item with its documented Activity.
Tested on: Platelet
run description: Inhibition of arachidonic acid-induced platelet aggregation in rabbit platelets at 50 ug/mL treated 30 mins before […] challenge relative to control
Format: functional, Oryctolagus cuniculus
Set-up: scale not given: the % may be the effect or the level left
Answers are plain numbers, in %.

Use the examples below as a reference point.
>>> df
                                   molecule  outcome_measure  measurement
0  COc1cc2c3c(cc4ccccc4c3c1O)N(C)CC2 [DEHYDROLIRINIDINE]         Activity         23.8
1  COc1cc2ccnc3c2c(c1OC)-c1ccccc1C3=O [LYSICAMINE]         Activity         16.3
2  COc1cc2c(cc1OC)-c1c(OC)c(O)cc3c1[C@H](C2)N(C)CC3 [PREDICENTRINE]         Activity           62

Batch: Activity for all items listed.
1. COc1cc2c(cc1OC)-c1c(OC)c(OC)c(O)c3c1[C@@H](C2)N(C)CC3 [THALBAICALIDINE]
2. CNCCc1c(OC)c(OC)c(OC)c2c1ccc1cc(OC)c(OC)cc12 [THALICPUREINE]

A)
1: 72.2; 2: 0

---

Tested on: Platelet
run description: Inhibition of platelet activating factor-induced platelet aggregation in rabbit platelets at 50 ug/mL treated […] before […] challenge relative to control
Format: functional, Oryctolagus cuniculus
Design: scale not given: the % may be the effect or the level left
outcome measure: Activity (%)
Give bare numbers, in %.

Use the examples below as a reference point.
>>> print(df.to_string())
                                smiles_code  target_entity  unit  measurement
0  CNCCc1c(OC)c(OC)c(OC)c2c1ccc1cc(OC)c(OC)cc12       Platelet     %          3.9
1  COc1cc2c(cc1OC)-c1c(OC)c(OC)cc3ccnc(c13)C2=O       Platelet     %         84.4
2  COc1cc2c(O)c3c4c(cc(OC)c(OC)c4c2cc1OC)CCN3C       Platelet     %            0

Q) Test system Platelet; read-out Activity; what value for COc1cc2ccnc3c2c(c1OC)-c1ccccc1C3=O ?
A) 83.7

Reference for the values: ChEMBL document CHEMBL1151319
